System: FT3469 (normal neural stem cell line);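 note: cell Painting imaging in 384-well plates, CellProfiler features reduced to at least 20 principal components, Euclidean distance versus same-plate DMSO vehicle wells (0.1% v/v), median over six images per well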
Assay: phenotypic distance (Euclidean, principal components) from DMSO controls (arbitrary units); higher = stronger morphological change
Settings: 333.3 nM; exposure time: 72 h
Structures can show the parent of a compound that is named as a salt.

Compound: C[C@@]12C(=O)OC(=O)[C@]1(C)[C@H]1CC[C@@H]2O1 [Cantharidin]
phenotypic distance: 5.81
--
Compound: Nc1ccn([C@H]2CC[C@@H](CO)O2)c(=O)n1 [Zalcitabine]
phenotypic distance: 0.603
--
Compound: CCC1=C[C@@H]2CN(C1)Cc1c([nH]c3ccccc13)[C@@](C(=O)OC)(c1cc3c(cc1OC)N(C)[C@H]1[C@@](O)(C(=O)OC)[C@H](OC(C)=O)[C@]4(CC)C=CCN5CC[C@]31[C@@H]54)C2 [Vinorelbine Tartrate]
phenotypic distance: 2.43
--
Compound: COc1cc(N)c(Cl)cc1C(=O)NC1CCN(CCCOc2ccc(F)cc2)CC1OC (configuration not stated) [Cisapride]
phenotypic distance: 0.576
--
Compound: O=C1CC[C@@H](C(=O)N2CSC[C@H]2C(=O)O)N1 [Pidotimod]
phenotypic distance: 0.526
--
Compound: Cc1cc(/C=C/c2ccc3cc(N(C)C)ccc3[n+]2C)c(C)n1-c1ccccc1 [Pyrvinium pamoate]
phenotypic distance: 3.78
--
Compound: COc1nc(C)nc(Cl)c1NC1=NCCN1 [Moxonidine]
phenotypic distance: 0.406
--
Compound: CCOC(=O)OC(C)OC1=C(C(=O)Nc2ccccn2)N(C)S(=O)(=O)c2ccccc21 (configuration not stated) [Ampiroxicam]
phenotypic distance: 0.73
--
Compound: O=C(CCBr)N1CCN(C(=O)CCBr)CC1 [Pipobroman]
phenotypic distance: 0.615
--
Compound: COC(=O)Nc1nc2cc(Sc3ccccc3)ccc2[nH]1 [Fenbendazole]
phenotypic distance: 1.54
--
Compound: C=CC(=O)Nc1cc(Nc2nccc(-c3cn(C)c4ccccc34)n2)c(OC)cc1N(C)CCN(C)C [Osimertinib mesylate]
phenotypic distance: 0.702
--
Compound: CCCCCCCCCCCCCCCC[N+](C)(C)CCN(Cc1ccc(OC)cc1)c1ncccn1 [Thonzonium bromide]
phenotypic distance: 0.582
--
Compound: Nc1ncnc2c1c(-c1ccc(Oc3ccccc3)cc1)cn2C1CCCC1
phenotypic distance: 1.17
--
Compound: NC(=O)c1ccccc1 [Benzamide]
phenotypic distance: 0.522
--
Compound: Cn1ncnc1[C@H]1c2n[nH]c(=O)c3cc(F)cc(c23)N[C@@H]1c1ccc(F)cc1 [Talazoparib]
phenotypic distance: 1.74
--
Compound: COc1ccc2[nH]c([S+]([O-])Cc3ncc(C)c(OC)c3C)nc2c1 (configuration not stated) [Omeprazole]
phenotypic distance: 0.549
--
Compound: CC(C)N1CCN(c2ccc(OCC3COC(Cn4cncn4)(c4ccc(Cl)cc4Cl)O3)cc2)CC1 (configuration not stated) [Terconazole]
phenotypic distance: 0.822
--
Compound: Cn1nnc2c(C(N)=O)ncn2c1=O [Temozolomide]
phenotypic distance: 0.852
--
Compound: COc1ccc(C(=O)CC(=O)c2ccc(C(C)(C)C)cc2)cc1 [Avobenzone]
phenotypic distance: 0.788
--
Compound: CC1=C(/C=C/C(C)=C/C=C/C(C)=C/C(=O)Nc2ccc(O)cc2)C(C)(C)CCC1 [Retinoic acid p-hydroxyanilide]
phenotypic distance: 1.89
--
Compound: c1ccc2c(c1)[I+]c1ccccc1-2 [Diphenyleneiodonium chloride]
phenotypic distance: 2.13
--
Compound: OCCN1CCN(CCCN2c3ccccc3Sc3ccc(Cl)cc32)CC1 [Perphenazine]
phenotypic distance: 0.84
--
Compound: CN(C)CCN(Cc1ccc(Cl)cc1)c1ccccn1 [Chloropyramine hydrochloride]
phenotypic distance: 0.847
--
Compound: N=c1ccn2c(n1)O[C@H]1[C@H](O)[C@@H](CO)O[C@H]12 [Ancitabine hydrochloride]
phenotypic distance: 3.06
--
Compound: C[C@@H]1C[C@@H]([C@H](O)CC2CC(=O)NC(=O)C2)C(=O)[C@@H](C)C1 [Cycloheximide]
phenotypic distance: 5.19
--
Compound: CC(C)(Oc1ccc(C2CC2(Cl)Cl)cc1)C(=O)O (configuration not stated) [Ciprofibrate]
phenotypic distance: 0.871
--
Compound: CCC(C)n1ncn(-c2ccc(N3CCN(c4ccc(OCC5COC(Cn6cncn6)(c6ccc(Cl)cc6Cl)O5)cc4)CC3)cc2)c1=O (configuration not stated) [Itraconazole]
phenotypic distance: 0.753

The values you see were collected from the supplement of paper PMC13207355.
